# TGT: gelatinase B (UniProt P14780 107-707, limits assumed)
# Sequence (P14780 107-707 limits assumed): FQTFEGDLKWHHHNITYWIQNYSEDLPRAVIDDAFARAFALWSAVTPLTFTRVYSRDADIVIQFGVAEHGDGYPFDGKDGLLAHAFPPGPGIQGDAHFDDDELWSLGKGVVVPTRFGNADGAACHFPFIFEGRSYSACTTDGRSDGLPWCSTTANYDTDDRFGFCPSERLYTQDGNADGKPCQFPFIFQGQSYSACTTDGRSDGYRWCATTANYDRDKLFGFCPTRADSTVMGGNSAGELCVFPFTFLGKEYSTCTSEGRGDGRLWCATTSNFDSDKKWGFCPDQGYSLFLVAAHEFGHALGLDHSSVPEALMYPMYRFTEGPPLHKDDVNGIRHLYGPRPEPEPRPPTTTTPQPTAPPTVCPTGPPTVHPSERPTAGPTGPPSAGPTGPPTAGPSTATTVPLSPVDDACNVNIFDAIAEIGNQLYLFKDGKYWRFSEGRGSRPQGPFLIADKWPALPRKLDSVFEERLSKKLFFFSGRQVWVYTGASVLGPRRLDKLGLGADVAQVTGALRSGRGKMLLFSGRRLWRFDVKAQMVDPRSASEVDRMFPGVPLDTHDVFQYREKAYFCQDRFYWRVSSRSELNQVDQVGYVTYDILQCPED
# METHOD: cell-based or functional assay
*1 amine or outer side, *2 acyl side, *3 side chain or, on linkers, in order; H or OH if unused. [ ]: non-standard residue; d: D form. The star is where a group is joined. Dnp = O=[N+]([O-])c1ccc(*)c([N+](=O)[O-])c1; C(Me) = CSC[C@H](N[*:1])C(=O)[*:2]
Recorded Selectivity v. Coll-3 values for a group of binders are listed next.
# unit: unitless | format: bare number

Worked examples follow.
{"BINDER": "Dnp-GPLPFRG[C(Me)]-NH2 (SMILES CSC[C@H](NC(=O)CNC(=O)[C@H](CCCNC(=N)N)NC(=O)[C@H](Cc1ccccc1)NC(=O)[C@@H]1CCCN1C(=O)[C@H](CC(C)C)NC(=O)[C@@H]1CCCN1C(=O)CNc1ccc([N+](=O)[O-])cc1[N+](=O)[O-])C(N)=O) [Dnp-GPLPFRGC(Me)-NH2]", "Selectivity v. Coll-3 [unitless]": 8}
{"BINDER": "Dnp-GPVNLHG[C(Me)]-NH2 (SMILES CSC[C@H](NC(=O)CNC(=O)[C@H](Cc1c[nH]cn1)NC(=O)[C@H](CC(C)C)NC(=O)[C@H](CC(N)=O)NC(=O)[C@@H](NC(=O)[C@@H]1CCCN1C(=O)CNc1ccc([N+](=O)[O-])cc1[N+](=O)[O-])C(C)C)C(N)=O) [Dnp-GPVNLHGC(Me)-NH2]", "Selectivity v. Coll-3 [unitless]": 3}

Here is the next item to consider.
QUERY: Given Dnp-GPHPMRG-NH2 (SMILES CSCC[C@H](NC(=O)[C@@H]1CCCN1C(=O)[C@H](Cc1c[nH]cn1)NC(=O)[C@@H]1CCCN1C(=O)CNc1ccc([N+](=O)[O-])cc1[N+](=O)[O-])C(=O)N[C@@H](CCCNC(=N)N)C(=O)NCC(N)=O) [Dnp-GPHPMRG-NH2] , respond with its Selectivity v. Coll-3.
RESULT: 4

All values here come from patent US20030229005A1.
